# Study System: Glucose transporter (Leishmania mexicana) (UniProt O61059)
# Assay Overview: ST_JUDE_LEISH: Cytotoxicity at 2uM final concentration against transgenic Leishmania Mexicana promastigotes LmGT2 that are glucose transport deficient and complemented with the L. Mexicana glucose transporter 2. Activity is measured by DNA content using SYBR green in vitro
# Format: functional
Assay Metric: inhibition (%)
Give bare numbers, in %.

Here's what some known entries look like.
>>> measured_value("COc1ccccc1-c1nc2nc(N)nc(N)c2nc1-c1ccccc1OC")
1.01
>>> measured_value("COc1cc(-c2nc(-c3ccccc3)c(-c3ccccc3)[nH]2)cc(OC)c1O")
-1.53
>>> measured_value("O=S(=O)(Nc1cccc(CCN2CCC(N3CCCCC3)CC2)c1)c1cccc2ccccc12")
3.28
>>> measured_value("N=C(N)NN=Cc1ccc2ccc3ccccc3c2c1")
4.14
>>> measured_value("COc1ccc2nccc([C@@H](O)CN3CCC(NCc4nc5c([N+](=O)[O-])cccc5[nH]4)CC3)c2c1")
1.31

Parameter requested: inhibition. Apply to each item below.
1. OCCNc1nc(Nc2cccc(O)c2)nc2ccccc12
2. OCCOCn1cnc2cnc(N[C@H]3OC[C@H](O)[C@@H](O)[C@@H]3O)nc21

[out]
1. 4.01
2. 1.69

Provide reported inhibition for each item, in the same order as listed.
1. Cc1sc(NC(=O)c2ccc([N+](=O)[O-])cc2Cl)c(C(N)=O)c1C
2. O=C(Nc1cccc(C(F)(F)F)c1)c1cccc(S(=O)(=O)NCC2CCCN(Cc3ccccc3)C2)c1 (centres undefined)
3. COc1ccc(C2CCN(CCN3CCC(NC(=O)c4ccc(-c5cccc(C(F)(F)F)c5C(F)(F)F)cc4)CC3)CC2)c(OC)c1
4. CN1CCN(Cc2ccc(-c3cc4c(Nc5ccc(OCc6cccc(F)c6)c(Cl)c5)ncnc4s3)[nH]2)CC1
5. CCOC(=O)N(C)/N=C/[C@H](CCc1ccccc1)NC(=O)[C@H](CC(C)C)NC(=O)c1cc2cccc(OC)c2o1
6. Nc1nc(NCC2CCC(CNS(=O)(=O)c3cccc4ccccc34)CC2)nc2ccccc12 (centres undefined)

[out]
1. 2.74
2. 1.71
3. -0.58
4. 8.25
5. 5.24
6. 1.21

// batch mode: one inhibition value per listed entry
1. COc1ccc(NC(=O)Nc2ccc(C)c(-c3ccc(C(=O)Nc4ccncc4)cc3)c2)cc1
2. Cc1cccc(C)c1CNc1cccc(-c2nc(C)c(C)[nH]2)c1
3. COc1ccc2nccc([C@@H](O)CN3CCC(NCc4cc5cccc(OCc6ccccc6)c5[nH]4)CC3)c2c1
4. Cc1noc(C)c1-c1cccc(CNCc2ccc(-c3ccc(-c4nc5ccccc5[nH]4)s3)cc2)c1
5. CCOC(=O)c1cnc2c(OC)cc(OC)c(Cl)c2c1Nc1cccc(C)c1C
6. CCn1ncc2c(NC3CCOCC3)c(CNC(=O)c3ccnn3C)c(C)nc21

[out]
1: 0.71; 2: 1.97; 3: 2.01; 4: -0.04; 5: -6.14; 6: 0.31
